In this section, each of the compounds is paired with its reported IC50.
Tested on: A549
Assay: Dark toxicity in human A549 cells assessed as reduction in cell viability incubated under dark for 48 hrs measured after 48 hrs by CCK8 assay
Type: functional, cell-based
Details: A549, 48 h
Give just the number in µM; leave the unit off.

smiles str: C=Cc1c(C)c2cc3nc(c(C(=O)OC)c4[nH]c(cc5nc(cc1[nH]2)C(C)=C5CC)c(C)c4C(=O)OC)[C@@H](CCC(=O)NCCCCC(=O)Nc1ccccc1N)[C@@H]3C
IC50, µM: 3.51
--
smiles str: C=Cc1c(C)c2cc3nc(c(C(=O)OC)c4[nH]c(cc5nc(cc1[nH]2)C(C)=C5CC)c(C)c4C(=O)OC)[C@@H](CCC(=O)NCCCCCC(=O)Nc1ccccc1N)[C@@H]3C
IC50, µM: 2.67
--
smiles str: C=Cc1c(C)c2cc3nc(c(C(=O)OC)c4[nH]c(cc5nc(cc1[nH]2)C(C)=C5CC)c(C)c4C(=O)OC)[C@@H](CCC(=O)NO)[C@@H]3C
IC50, µM: 0.37

Input: Form field - read-out: IC50; system: A549; submitted item: `C=Cc1c(C)c2cc3nc(c(C(=O)OC)c4[nH]c(cc5nc(cc1[nH]2)C(C)=C5CC)c(C)c4C(=O)OC)[C@@H](CCC(=O)O)[C@@H]3C`
Output: 15.7

Input: Form field - read-out: IC50; system: A549; submitted item: `C=Cc1c(C)c2cc3nc(cc4[nH]c(cc5nc(cc1[nH]2)C(C)=C5CC)c(C)c4C(=O)OC)[C@@H](CCC(=O)O)[C@@H]3C`
Output: 15.3

Input: Form field - read-out: IC50; system: A549; submitted item: `C=Cc1c(C)c2cc3nc(c(C(=O)OC)c4[nH]c(cc5nc(cc1[nH]2)C(C)=C5CC)c(C)c4C(=O)OC)[C@@H](CCC(=O)Nc1ccccc1N)[C@@H]3C`
Output: 0.59

----------
Target: Histone deacetylase 1 (Homo sapiens, UniProt Q13547)
Sequence (Q13547 whole entry): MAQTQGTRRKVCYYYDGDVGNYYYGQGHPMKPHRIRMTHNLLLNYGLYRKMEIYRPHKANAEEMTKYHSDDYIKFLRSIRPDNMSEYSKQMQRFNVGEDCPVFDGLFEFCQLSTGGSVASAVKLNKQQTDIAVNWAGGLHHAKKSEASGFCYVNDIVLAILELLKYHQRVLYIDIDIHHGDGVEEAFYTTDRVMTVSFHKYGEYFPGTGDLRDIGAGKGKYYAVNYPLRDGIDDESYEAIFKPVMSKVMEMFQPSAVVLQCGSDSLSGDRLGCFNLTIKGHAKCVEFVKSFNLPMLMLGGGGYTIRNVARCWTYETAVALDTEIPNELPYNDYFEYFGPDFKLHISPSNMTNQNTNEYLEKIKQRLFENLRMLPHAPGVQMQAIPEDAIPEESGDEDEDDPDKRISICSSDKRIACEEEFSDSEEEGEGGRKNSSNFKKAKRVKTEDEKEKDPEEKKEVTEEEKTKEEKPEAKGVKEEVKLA
Assay: Inhibition of human recombinant HDAC1 using Ac-Leu-Gly-Lys(Ac)-AMC as substrate by measuring fluorescence intensity incubated for 30 mins by microplate reader assay
In this section, each of the compounds is paired with its reported IC50.
Give just the number in µM; leave the unit off.

smiles str: C=Cc1c(C)c2cc3nc(c(C(=O)OC)c4[nH]c(cc5nc(cc1[nH]2)C(C)=C5CC)c(C)c4C(=O)OC)[C@@H](CCC(=O)NCCCC(=O)Nc1ccccc1N)[C@@H]3C
metric: IC50
value measured: 201

Input: Form field - read-out: IC50; system: Histone deacetylase 1 (Homo sapiens, UniProt Q13547); submitted item: `C=Cc1c(C)c2cc3nc(c(C(=O)OC)c4[nH]c(cc5nc(cc1[nH]2)C(C)=C5CC)c(C)c4C(=O)OC)[C@@H](CCC(=O)Nc1ccccc1N)[C@@H]3C`
Output: 224

Input: Form field - read-out: IC50; system: Histone deacetylase 1 (Homo sapiens, UniProt Q13547); submitted item: `C=Cc1c(C)c2cc3nc(c(C(=O)OC)c4[nH]c(cc5nc(cc1[nH]2)C(C)=C5CC)c(C)c4C(=O)OC)[C@@H](CCC(=O)Nc1ccc(C(=O)Nc2ccccc2N)cc1)[C@@H]3C`
Output: 27

Input: Form field - read-out: IC50; system: Histone deacetylase 1 (Homo sapiens, UniProt Q13547); submitted item: `C=Cc1c(C)c2cc3nc(cc4[nH]c(cc5nc(cc1[nH]2)C(C)=C5CC)c(C)c4C(=O)OC)[C@@H](CCC(=O)Nc1ccc(C(=O)NO)cc1)[C@@H]3C`
Output: 28
